target: R232-STING (Homo sapiens, UniProt Q86WV6, H232R); test: biochemical
Sequence (Q86WV6 155-341 H232R): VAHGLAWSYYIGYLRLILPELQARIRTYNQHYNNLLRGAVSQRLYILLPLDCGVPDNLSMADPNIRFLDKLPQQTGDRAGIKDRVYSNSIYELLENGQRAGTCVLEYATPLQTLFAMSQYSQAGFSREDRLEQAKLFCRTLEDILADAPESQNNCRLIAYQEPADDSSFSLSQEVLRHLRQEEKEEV
MEASUREMENT_KIND: Ki (nM)

Observe how each entry below is paired with its result.
CCn1nc(C)c(F)c1-c1nc(-c2cc(C(N)=O)cc3c2cnn3CCCN2CCOCC2)n[nH]1
277
CCn1nc(C)cc1-c1nc(-c2nc(C(N)=O)cc3c2cnn3C)c(CNC)s1
134
CCn1nc(C)cc1-c1nnc(-c2cc(C(N)=O)cc3c2cnn3CC2CC3(CCN(C)CC3)C2)[nH]1
572
CCn1nc(C)cc1-c1n[nH]c(-c2cc(C(N)=O)cc3c2cnn3CCN(C)CC(N)=O)n1
879

(A) Cc1nn(CCC(=O)O)c(-c2n[nH]c(-c3cc(C(N)=O)cc4c3cnn4C)n2)c1Cl
(B) CCn1cc2c(-c3nc(-c4cc(C)nn4CC)n[nH]3)cc(C(N)=O)cc2n1
Q. Between A and B , which one has the lower reported Ki value? Reply briefly: the label of your chosen item.
A. B

###

target: STING (Homo sapiens, UniProt Q86WV6, G230A/H232R/R293Q/R71H); construct: host or cells: THP-1 and THP-1 Lucia ISG cells; experiment: Interferon-β induction: THP-1 Lucia ISG reporter cell line; assay type: cell-based; details: THP-1 Lucia ISG cells, 24 hours incubation, luciferase reporter; read-out: THP-1 Lucia ISG Cells IFN-β EC50
Sequence (Q86WV6 whole entry R71H/G230A/H232R/R293Q): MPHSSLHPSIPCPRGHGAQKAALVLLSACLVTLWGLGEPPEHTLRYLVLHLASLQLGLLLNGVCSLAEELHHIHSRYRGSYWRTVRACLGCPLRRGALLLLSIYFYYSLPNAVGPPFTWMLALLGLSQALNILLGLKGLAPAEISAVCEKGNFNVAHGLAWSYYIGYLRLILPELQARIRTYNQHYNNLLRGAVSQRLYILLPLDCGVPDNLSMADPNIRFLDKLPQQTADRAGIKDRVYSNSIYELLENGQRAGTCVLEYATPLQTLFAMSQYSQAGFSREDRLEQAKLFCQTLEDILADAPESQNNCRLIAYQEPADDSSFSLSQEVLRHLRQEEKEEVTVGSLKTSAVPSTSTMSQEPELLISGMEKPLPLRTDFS
Where a name gives a salt, the structure may show the parent alone.
MEASUREMENT_KIND: EC50 (nM)

CCn1nc(C)cc1-c1nc(-c2nc(C(N)=O)cc3c2cnn3C)c(C(C)N)s1 (racemic) [Compound W-7, trifluoroacetate]
1870
CCn1cc2c(-c3nc(-c4cc(C)nn4CC)n[nH]3)cc(C(N)=O)cc2n1
6330
CCn1nc(C)cc1-c1nc(-c2cc(C(N)=O)cc3c2cnn3C)nn1COP(=O)(O)O
76900
CCn1ncc(O)c1-c1nc(-c2nc(C(N)=O)cc3c2cnn3C)c(CN)o1
6200
Cc1cc(-c2nc(-c3nc(C(N)=O)cc4c3cnn4C)c(CN)o2)n(CCCO)n1
1850
Cc1cc(-c2n[nH]c(-c3nc(C(N)=O)cc4c3cnn4C)n2)n(CCC(=O)O)n1
5240
CCn1nc(C)c(Cl)c1-c1nc(-c2cc(C(N)=O)cc3c2cnn3C)n[nH]1
240
CCn1nc(C)cc1-c1nc(-c2nc(C(N)=O)cc3c2cnn3C)c(CN)s1
2100

(P) Cc1cc(-c2nc(-c3nc(C(N)=O)cc4c3cnn4C)n(C)n2)n(CCC(=O)O)n1
(Q) CCn1nc(C)c(F)c1-c1nc(-c2nc(C(N)=O)cc3c2cnn3C)n(C)n1
Q. Please let me know which one, P or Q , has a lower measured EC50 value. // return label of chosen record
A. Q

(P) CCn1nc(C)c(O)c1-c1n[nH]c(-c2nc(C(N)=O)cc3c2cnn3C)n1
(Q) CCn1nc(C)c(F)c1-c1nc(-c2nc(C(N)=O)cc3c2cnn3CCN2CCC(C#N)CC2)n(C)n1
Q. Could you check which of P and Q has a smaller value for EC50? Indicate your choice by writing its label.
A. P
(P: 10 nM, Q: 2760 nM)

###

Molecular target: STING (Homo sapiens, UniProt Q86WV6, G230A/H232R/R293Q/R71H)
Construct: host or cells: THP-1 and THP-1 Lucia ISG cells
Test: Phosphorylation of IRF3: THP-1 cell ELISA
Format: cell-based
Details: THP-1 cells, 3 hours incubation, phospho-IRF3 ELISA; read-out: THP-1 CELL P-IRF3 EC50
Procedure: Phosphorylation of IRF3: THP-1 Cell ELISA STING activation results in recruitment of TBK1 and phosphorylation of IRF3 transcription factor before induction of type I interferons. THP-1 cells (InvivoGen) were grown in RPMI media plus 2 mM L-glutamine, 10% fetal bovine serum, and 0.5% Pen-Strep. 10^4 cells were seeded in 96-well plates and incubated overnight 37° C., 5% CO2. […] The signal was measured using a Perkin-Elmer Envision microplate reader. […]
pEC50: −log10 of the molar value. Where a name gives a salt, the structure may show the parent alone.
MEASUREMENT_KIND: pEC50

# annotated cases, reported pEC50 shown
Cc1nn(CCCO)c(-c2nc(-c3nc(C(N)=O)cc4c3cnn4C)c(CN)o2)c1O
5.55
Cc1cc(-c2nc(-c3nc(C(N)=O)cc4c3cnn4C)n(C)n2)n(CCCO)n1
7.10
CCn1nc(C)c(F)c1-c1nc(-c2nc(C(N)=O)cc3c2cnn3C)n(C)n1
6.20
Cc1cc(-c2nc(-c3nc(C(N)=O)cc4c3cnn4C)c(CN)o2)n(CCCO)n1
5.70
CCn1nc(C)cc1-c1n[nH]c(-c2nc(C(N)=O)cc3c2cnn3C)n1
6.77

(P) CCn1nc(C)cc1-c1n[nH]c(-c2cc(C(N)=O)cc3c2cnn3CCN2CC3CCC(C2)O3)n1
(Q) Cc1nn(CCCO)c(-c2n[nH]c(-c3nc(C(N)=O)cc4c3cnn4C)n2)c1O
(R) Cc1cc(-c2n[nH]c(-c3nc(C(N)=O)cc4c3cnn4C)n2)n(CCCO)n1
Q. Give the ascending ranking of the items by reported pEC50. Give the order by naming the labels one after another as requested.
A. P, Q, R

(a) CCn1nc(C)cc1-c1n[nH]c(-c2cc(C(N)=O)cc3c2ccn3C)n1
(b) Cc1cc(-c2nc(-c3nc(C(N)=O)cc4c3cnn4C)n(C)n2)n(CCC(=O)O)n1
Q. In the pair a and b , the larger recorded pEC50 belongs to which? Answer with the label corresponding to your selection.
A. a

(A) CCn1nc(C)cc1-c1n[nH]c(-c2cc(C(N)=O)cc3c2cnn3CCN2CC(F)C2)n1 [Example M01, trifluoroacetic acid salt]
(B) CCn1nc(C)cc1-c1nc(-c2nc(C(N)=O)cc3c2cnn3C)c(C(C)N)s1 (single isomer, unassigned) [Example W02]
Q. When A and B are compared, which has the higher number for pEC50? Bench note: the answer is the label of the chosen record.
A. B

(P) CCn1nc(C)cc1-c1n[nH]c(-c2cc(C(N)=O)cc3c2cnn3CC)n1
(Q) CCn1nc(C)cc1-c1n[nH]c(-c2cc(C(N)=O)cc3c2cnn3C)n1
Q. Among P and Q , whose measured pEC50 is the smaller figure? Field: selected label. Fill in the label of the entry you choose.
A. P
